List of IC50 values.
- Assay system: COP9 signalosome complex subunit 5 (Homo sapiens)
- Sequence (Q92905 whole entry, one chain of several): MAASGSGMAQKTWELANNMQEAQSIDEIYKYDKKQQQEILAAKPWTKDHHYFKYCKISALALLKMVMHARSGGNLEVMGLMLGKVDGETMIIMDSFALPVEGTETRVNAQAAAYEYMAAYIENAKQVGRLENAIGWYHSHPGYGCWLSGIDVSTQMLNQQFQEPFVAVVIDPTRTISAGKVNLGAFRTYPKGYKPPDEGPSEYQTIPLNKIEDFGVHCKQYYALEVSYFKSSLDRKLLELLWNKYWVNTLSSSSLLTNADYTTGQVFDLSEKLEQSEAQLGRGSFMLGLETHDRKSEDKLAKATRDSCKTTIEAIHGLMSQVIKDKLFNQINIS
- Test description: Inhibition of CSN5 (unknown origin) using SCFskp2-Nedd8OG as substrate after 1 hr by fluorescence polarization assay

> print(dat)
      chemical.string  assay.value
1  Cc1ccc2cccc(S)c2n1     > 100 µM

Entry under test: `O=C(NCCc1nccs1)c1cnc2c(O)cccc2c1` . Its IC50 was > 100 µM

# compound `NC(=O)c1cnc2c(SSc3cccc4cc(C(N)=O)cnc34)cccc2c1` ; its IC50 = 15.3 µM

# IC50 (compound: `O=C(NCc1ccncc1)c1cnc2c(SSc3cccc4cc(C(=O)NCc5ccncc5)cnc34)cccc2c1` ) is 7 µM

Data point: `Cc1ccc(S)c2ncccc12` ; IC50 = 2.9 µM
